Origin of measurements: paper PMC11084668

Molecular target: T1, rLIN28B (LIN28B-Myc-His) (Homo sapiens, UniProt Q6ZN17 1-250)
T1 sequence: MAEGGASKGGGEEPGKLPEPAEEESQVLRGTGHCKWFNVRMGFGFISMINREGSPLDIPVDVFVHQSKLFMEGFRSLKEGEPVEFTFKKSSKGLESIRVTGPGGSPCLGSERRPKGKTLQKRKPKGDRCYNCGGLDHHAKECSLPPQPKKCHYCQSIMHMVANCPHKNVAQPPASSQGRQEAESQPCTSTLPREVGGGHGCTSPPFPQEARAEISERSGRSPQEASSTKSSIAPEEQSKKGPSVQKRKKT
Assay: AlphaScreen saturation binding; apparent Kd; n = 3, SD; REMSA: 20 mM HEPES pH 7.5, 50 mM KCl, 0.5 ug BSA, 0.25% glycerol, room temperature, 1 h; AlphaScreen: dialysis buffer (Table S3, partly shown: 0.02% Tween, 0.1% BSA, 15% glycerol, pH 7.5?), room temperature, 90 min
Details: protein: recombinant; tags: C-terminal Myc-His; label: 5'-biotin
pKd: −log10 of the molar value.

[
  {
    "BINDER": "GCUAUGAUACCACCCGGUACAGGAGC (structured_RNA) [Bi-pre-let-7g]",
    "pKd": 7.46
  }
]
